assayedTarget: PDK1 (Homo sapiens (Human), UniProt O15530)
Sequence (O15530 51-359): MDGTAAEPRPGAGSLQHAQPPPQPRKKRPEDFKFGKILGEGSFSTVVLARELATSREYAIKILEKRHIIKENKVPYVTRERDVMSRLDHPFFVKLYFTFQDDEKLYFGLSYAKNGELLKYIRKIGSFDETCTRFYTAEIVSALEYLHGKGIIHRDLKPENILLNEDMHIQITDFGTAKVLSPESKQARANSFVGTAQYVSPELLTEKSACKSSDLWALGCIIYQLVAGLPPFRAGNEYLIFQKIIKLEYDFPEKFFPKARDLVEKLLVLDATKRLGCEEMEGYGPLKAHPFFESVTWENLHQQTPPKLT
protocolDescription: PDK1 kinase assay (coupled PDK1/AKT/FAM-crosstide assay, IMAP fluorescence polarization)
Assay type: biochemical
reportedConditions: inhibition of phospo-PDK1 in vitro
pIC50: −log10 of the molar value. Where a name gives a salt, the structure may show the parent alone.
Assign pIC50 to each entry below.

Could you share which pIC50 value was measured for Nc1ncnc2ccc(-c3ccc(CNc4ncc(OCc5ccccc5)cc4C(=O)NCc4ccc(F)c(F)c4)s3)cc12 [Ex. 8.1.1] ?
> 7.00

Could you share which pIC50 value was measured for N#Cc1cnc(NCc2ccc(-c3cnc(N)cn3)cc2)c(C(=O)Nc2ccc(F)cc2)n1 [Example 34] ?
> 7.00

Could you share which pIC50 value was measured for Nc1ncnc2ccc(-c3ccc(CNc4ncccc4C(=O)Nc4cc(F)cc(F)c4)s3)cc12 [Example 3.85, (TFA salt)] ?
5.30 to 6.00

Could you share which pIC50 value was measured for Nc1ncnc2ccc(-c3ccc(CNc4ncccc4C(=O)Nc4ccccc4Cl)s3)cc12 [Example 3.31, (TFA salt)] ?
< 5.30

Could you share which pIC50 value was measured for C[C@H](NC(=O)c1cccnc1NCc1ccc(-c2ccc3ncc4c(c3c2)n(C)c(=O)n4C)s1)c1ccc(F)cc1 [Example 2.17] ?
< 5.30

Could you share which pIC50 value was measured for CC[C@H](NC(=O)c1cccnc1NCc1ccc(-c2ccc3ncnc(N)c3c2)s1)c1ccc(F)cc1 [Example 3.43, (TFA salt)] ?
6.00 to 7.00

Could you share which pIC50 value was measured for C[C@H](NC(=O)c1cccnc1N[C@@H](COc1ccc2c(c1)[nH]c(=O)n2C)c1ccccc1)c1ccc(F)c(F)c1 [Example 16.13] ?
> 7.00

----------
Assign pIC50 to each entry below.
assayedTarget: PDK1 (Homo sapiens (Human))
protocolDescription: PDK1 kinase assay (coupled PDK1/AKT/FAM-crosstide assay, IMAP fluorescence polarization)
Assay type: biochemical
reportedConditions: inhibition of phospo-PDK1 in vitro
pIC50: −log10 of the molar value.

Could you share which pIC50 value was measured for `C[C@H](NC(=O)c1cccnc1NCc1ccc(-c2ccc3ncnc(N4CC(O)C4)c3c2)s1)c1ccc(F)c(F)c1` ?
> 7.00

Could you share which pIC50 value was measured for `O=C(NCc1ccc(F)c(F)c1)c1cccnc1NCc1cccc(-c2c[nH]c3ncncc23)c1` ?
> 7.00

Could you share which pIC50 value was measured for `C[C@H](NC(=O)c1cccnc1NCc1cccc(-c2c[nH]c3ncnc(N)c23)c1)c1ccc(F)c(F)c1` ?
> 7.00

Could you share which pIC50 value was measured for `CC(C)Oc1cc(CNc2ncccc2C(=O)Nc2ccc(F)c(F)c2)cc(-c2c[nH]c3ncc(C(=O)NC4CC4)cc23)c1` ?
6.00 to 7.00

Could you share which pIC50 value was measured for `NCCNS(=O)(=O)c1cnc(NCc2ccc(-c3ccc4ncnc(N)c4c3)s2)c(C(=O)NCc2ccc(F)c(F)c2)c1` ?
5.30 to 6.00

----------
Assign IC50 to each entry below.
assayedTarget: PDK1 (Homo sapiens (Human))
protocolDescription: PDK1 kinase assay (coupled PDK1/AKT/FAM-crosstide assay, IMAP fluorescence polarization)
Assay type: biochemical
reportedConditions: inhibition of phospo-PDK1 in vitro
Where a name gives a salt, the structure may show the parent alone.

Could you share which IC50 value was measured for CCOC(=O)Nc1n[nH]c2ncc(-c3ccc(CNc4ncc(C#N)nc4C(=O)N[C@@H](C)c4ccc(F)c(F)c4)cc3)cc12 [Example 36] ?
< 100 nM

Could you share which IC50 value was measured for N#Cc1cnc(NCc2ccc(-c3ccc4ncnc(N)c4c3)s2)c(C(=O)NCc2ccc(F)cc2)n1 [Example 3.83, (TFA salt)] ?
< 100 nM

Could you share which IC50 value was measured for C[C@H](NC(=O)c1cn(C)nc1NCc1ccc(-c2ccc3ncnc(N)c3c2)s1)c1ccc(F)c(F)c1 [Example 11.4] ?
< 100 nM

Could you share which IC50 value was measured for O=C(NCc1ccc(F)c(F)c1)c1cccnc1Nc1cccc(-c2cccn3c(=O)[nH]nc23)c1 [Example 17.3] ?
100 to 1000 nM

Could you share which IC50 value was measured for C[C@H](NC(=O)c1cccnc1NCc1cn(-c2ccc3[nH]c(=O)[nH]c3c2)nn1)c1ccc(F)c(F)c1 [Example 9.2] ?
> 5000 nM

Could you share which IC50 value was measured for C[C@H](NC(=O)c1cccnc1NCc1ccc(-c2ccc3ncc4ncn(C)c4c3c2)s1)c1ccc(F)c(F)c1 [Example 2.25] ?
< 100 nM

Could you share which IC50 value was measured for Nc1ncnc2ccc(-c3ccc(CNc4nccnc4C(=O)Nc4ccc(F)c(F)c4)s3)cc12 [Example 3.72, (TFA salt)] ?
> 5000 nM

Could you share which IC50 value was measured for O=C(NCc1ccc(F)c(F)c1)c1cccnc1Nc1cccc(-c2cccc3c2CNC3=O)c1 [Example 17.1] ?
100 to 1000 nM

Could you share which IC50 value was measured for Nc1ncnc2ccc(-c3ccc(CNc4ncc(C(F)(F)F)nc4C(=O)NCc4ccc(F)c(F)c4)s3)cc12 [Example 10.10] ?
< 100 nM

Could you share which IC50 value was measured for C[C@H](NC(=O)c1cccnc1NC/C=C/c1ccc2c(c1)NC(=O)/C2=C\c1cnc[nH]1)c1ccc(F)c(F)c1 [Example 15.5] ?
< 100 nM

Could you share which IC50 value was measured for C[C@H](NC(=O)c1nccnc1NCc1ccc(-c2cc3c(N)ncnc3cn2)s1)c1ccc(F)cc1 [Example 3.79, (TFA salt)] ?
100 to 1000 nM

Could you share which IC50 value was measured for CCN(CC)CCNC(=O)c1c(C)[nH]c(/C=C2\C(=O)Nc3cc(/C=C/CNc4ncccc4C(=O)NCc4ccc(F)c(F)c4)ccc32)c1C [Example 15.17] ?
< 100 nM

Could you share which IC50 value was measured for C[C@H](NC(=O)c1cn(-c2ccccn2)nc1NCc1ccc(-c2ccc3ncnc(N)c3c2)s1)c1ccc(F)c(F)c1 [Ex. 11.3] ?
< 100 nM

Could you share which IC50 value was measured for C[C@H](NC(=O)c1cccnc1NCc1ccc(-c2ccc3ncnc(N)c3c2)s1)c1cccnc1 [Example 3.60, (TFA salt)] ?
100 to 1000 nM

Could you share which IC50 value was measured for C[C@H](NC(=O)c1cc(C#N)cnc1NCc1ccc(-c2ccc3ncc4ncn(C)c4c3c2)s1)c1ccc(F)cc1 [Example 2.28] ?
< 100 nM

Could you share which IC50 value was measured for C[C@H](NC(=O)c1nc(C#N)cnc1NCc1ccc(-c2cnc3[nH]nc(N)c3c2)cc1)c1ccc(F)cc1 [Example 32] ?
< 100 nM

Could you share which IC50 value was measured for Nc1ncnc2ccc(-c3ccc(CNc4ncc(S(=O)(=O)NCc5ccccc5)cc4C(=O)NCc4ccc(F)c(F)c4)s3)cc12 [Example 8.6.7] ?
100 to 1000 nM

Could you share which IC50 value was measured for Cn1cnc2cnc3ccc(-c4ccc(CNc5ncc(C#N)nc5C(=O)NCc5ccc(F)cc5)s4)cc3c21 [Example 3.82, (TFA salt)] ?
< 100 nM

Could you share which IC50 value was measured for C[C@H](NC(=O)c1cccnc1NC/C=C/c1ccc2c(c1)NC(=O)/C2=C\c1cnc[nH]1)c1ccc(F)cc1 [Example 15.22] ?
< 100 nM

Could you share which IC50 value was measured for CN1CCN(S(=O)(=O)c2cnc(NCc3ccc(-c4ccc5ncnc(N)c5c4)s3)c(C(=O)NCc3ccc(F)c(F)c3)c2)CC1 [Example 8.6.10] ?
100 to 1000 nM

Could you share which IC50 value was measured for CC(=O)Nc1cnc(NCc2ccc(-c3ccc4ncnc(N)c4c3)s2)c(C(=O)NCc2ccc(F)c(F)c2)c1 [Ex. 8.5.1] ?
< 100 nM

Could you share which IC50 value was measured for C[C@H](NC(=O)c1cn(-c2ccccc2)nc1NCc1ccc(-c2ccc3ncnc(N)c3c2)s1)c1ccc(F)c(F)c1 [Ex. 11.2] ?
100 to 1000 nM

Could you share which IC50 value was measured for CNS(=O)(=O)c1cnc(NCc2ccc(-c3ccc4ncnc(N)c4c3)s2)c(C(=O)NCc2ccc(F)c(F)c2)c1 [Ex. 8.7.1] ?
100 to 1000 nM

Could you share which IC50 value was measured for Nc1ncnc2ccc(-c3ccc(CNc4ncccc4C(=O)NCc4cccc(F)c4F)s3)cc12 [Example 3.10, (TFA salt)] ?
100 to 1000 nM

Could you share which IC50 value was measured for Nc1ncnc2ccc(-c3ccc(CNc4ncc(I)cc4C(=O)NCc4ccc(F)c(F)c4)s3)cc12 [Ex. 8.3] ?
< 100 nM

----------
assayedTarget: PDK1 (Homo sapiens (Human), UniProt O15530)
protocolDescription: PDK1 kinase assay (coupled PDK1/AKT/FAM-crosstide assay, IMAP fluorescence polarization)
Type: biochemical
reportedConditions: inhibition of phospo-PDK1 in vitro
Counter-ions that a name gives are not always drawn.
Assign IC50 to each entry below.

Could you share which IC50 value was measured for CC(C)C(=O)Nc1cnc(NCc2ccc(-c3ccc4ncnc(N)c4c3)s2)c(C(=O)NCc2ccc(F)c(F)c2)c1 [Example 8.5.3] ?
100 to 1000 nM

Could you share which IC50 value was measured for Nc1ncnc2ccc(-c3ccc(CNc4ncccc4C(=O)NCc4cc(F)cc(F)c4)s3)cc12 [Example 3.39, (TFA salt)] ?
< 100 nM

Could you share which IC50 value was measured for C[C@H](NC(=O)c1cc(C(F)(F)F)cnc1NC/C=C/c1ccc2c(c1)NC(=O)/C2=C\c1cnc[nH]1)c1ccc(F)c(F)c1 [Example 15.2] ?
100 to 1000 nM

Could you share which IC50 value was measured for Nc1ncnc2ccc(-c3ccc(CNc4ncc(Cl)cc4C(=O)NCc4ccc(F)c(F)c4)s3)cc12 [Example 8.12.3] ?
1000 to 5000 nM

Could you share which IC50 value was measured for C[C@H](NC(=O)c1cccnc1NCc1cccc(-c2c[nH]c3ncnc(N)c23)c1)c1ccc(F)cc1 [Example 2.29] ?
< 100 nM

Could you share which IC50 value was measured for C[C@H](NC(=O)c1nc(C#N)cnc1NCc1ccc(-c2ccc3ncnc(N)c3c2)s1)c1ccc(F)c(F)c1 [Ex. 10.9] ?
100 to 1000 nM

Could you share which IC50 value was measured for C/C=C/c1cnc(NCc2ccc(-c3ccc4ncnc(N)c4c3)s2)c(C(=O)NCc2ccc(F)c(F)c2)n1 [Ex. 10.6] ?
100 to 1000 nM

Could you share which IC50 value was measured for COc1ccnc(NCc2ccc(-c3ccc4ncnc(N)c4c3)s2)c1C(=O)NCc1ccc(F)c(F)c1 [Ex. 7.4] ?
100 to 1000 nM

Could you share which IC50 value was measured for Nc1ncnc2ccc(-c3ncc(CNc4ncccc4C(=O)NCc4ccc(F)c(F)c4)s3)cc12 [Ex. 6.6] ?
< 100 nM

Could you share which IC50 value was measured for COCCNC(=O)c1c(C)[nH]c(/C=C2\C(=O)Nc3cc(/C=C/CNc4ncccc4C(=O)NCc4ccc(F)c(F)c4)ccc32)c1C [Example 15.19] ?
< 100 nM

Could you share which IC50 value was measured for Cn1nc(Nc2ncccc2C(=O)NCc2ccc(F)c(F)c2)c2cc(-c3ccc4ncnc(N)c4c3)ccc21 [Example 14.2] ?
< 100 nM

Could you share which IC50 value was measured for C[C@H](NC(=O)c1cc(C(F)(F)F)cnc1NCc1ccc(-c2ccc3ncnc(N)c3c2)s1)c1ccc(F)c(F)c1 [Example 8.12.6] ?
< 100 nM

Could you share which IC50 value was measured for CCC(C)NS(=O)(=O)c1cnc(NCc2ccc(-c3ccc4ncnc(N)c4c3)s2)c(C(=O)NC)c1 (centres unmarked) [Example 8.6.17] ?
> 5000 nM

Could you share which IC50 value was measured for Nc1ncnc2c1c(-c1ccc(CNc3ncc(C(F)(F)F)cc3C(=O)Nc3ccc(F)cc3)cc1)cn2C1COC1 [Example 443] ?
< 100 nM

Could you share which IC50 value was measured for C[C@@H](c1ccc(F)c(F)c1)n1cnc2ccnc(NCc3ccc(-c4cc5c(N)ncnc5cn4)s3)c2c1=O [Example 7.11] ?
100 to 1000 nM

Could you share which IC50 value was measured for Nc1ncnc2ccc(-c3ccc(CNc4ncccc4C(=O)NCc4ccc(F)c(F)c4)s3)cc12 [Example 4.4] ?
< 100 nM

Could you share which IC50 value was measured for Nc1ncnc2ccc(-c3ccc(CNc4ncc(Br)nc4C(=O)NCc4ccc(F)c(F)c4)s3)cc12 [Ex. 10.2] ?
< 100 nM
